system: Nicotinate-nucleotide adenylyltransferase NadD (Staphylococcus aureus N315); assay: inhibitors of S. aureus NadD, primary screen, biochemical, colorimetric, uHTS (AID 602399); details: purified NadD enzyme, colorimetric absorbance read-out; at 20 µM; hits give high values
The whole screen tested about 360,000 compounds, of which about 2,800 (0.78%) were called active. The entries come from a sample that favours actives as a whole.
measured metric: inhibition (%)
Report the value in % with no unit label.

CC(C)C[C@@H](CO)N1CCN(Cc2ccc(O)cc2)CCC1=O	4.79

Consider "CC(=O)N1CCc2ccc(N)cc21" . Its measured inhibition is -3.06

Consider "Cc1noc(C)c1NC(=O)Nc1cccc2c1O[C@H](CN(C)C(=O)Nc1ccccc1)[C@@H](C)CN([C@H](C)CO)C2=O" . Its measured inhibition is -4.23

Consider "COc1ccccc1/C=C/C=N/n1c(-c2ccc(Cl)cc2Cl)n[nH]c1=S" . Its measured inhibition is 28

Consider "COc1ccc(/C(=N\O)c2nccc3cc(OC)c(OC)cc23)cc1OC" . Its measured inhibition is -0.658

Consider Cc1ccc(S(=O)(=O)N(C)C)cc1NC(=O)C1Cc2ccccc2CN1C(=O)c1ccco1 (stereo unspecified) . Its measured inhibition is 2.17
